The measurements presented in this section are drawn from patent US20110166062A1.

target: GLP-1 receptor (UniProt P43220 24-463, limits assumed); assay: cell-based or functional assay
Where no end group is shown, it is not given here.
Everything with relative activity lower than 0.06% is No; everything else, including exactly 0.06%, is Yes.

Here are 6 binders together with their reported answers.
- binder: "YAEGTFISDYSIAMDKIHQQDFVNWLLAQKGKKNWLKHNITQ-NH2 [mt-99]"
  label class: "No"
- binder: "YSQGTFTSDYSKYLDEIHQKDFVNWLLAQ-NH2 [mt-109]"
  label class: "Yes"
- binder: "YSQGTFTSDYSKYLDEIHQKEFVNWLLAQ-NH2 [mt-118]"
  label class: "Yes"
- binder: "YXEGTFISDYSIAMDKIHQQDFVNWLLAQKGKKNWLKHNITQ (C-terminal amide) [mt-100]"
  label class: "No"
- binder: "HSQGTFTSDYSKYLDEIHQKEFIAWLLAQ-NH2 [mt-66]"
  label class: "Yes"
- binder: "YAEGTFISDYSIAMDKIHQQDFVNWLLAQ-NH2 [mt-106]"
  label class: "No"

# next binder below
(Q) State whether the measured relative activity reaches 0.06%, counting equality as reaching it, for YSQGTFTSDYSKYLDEIHQKDFVNWLLAGGPSSGAPPPS-NH2 [mt-116]
(A) Yes
